Target: Human recombinant PKCβ1 (Homo sapiens)
Sequence (P05771 whole entry): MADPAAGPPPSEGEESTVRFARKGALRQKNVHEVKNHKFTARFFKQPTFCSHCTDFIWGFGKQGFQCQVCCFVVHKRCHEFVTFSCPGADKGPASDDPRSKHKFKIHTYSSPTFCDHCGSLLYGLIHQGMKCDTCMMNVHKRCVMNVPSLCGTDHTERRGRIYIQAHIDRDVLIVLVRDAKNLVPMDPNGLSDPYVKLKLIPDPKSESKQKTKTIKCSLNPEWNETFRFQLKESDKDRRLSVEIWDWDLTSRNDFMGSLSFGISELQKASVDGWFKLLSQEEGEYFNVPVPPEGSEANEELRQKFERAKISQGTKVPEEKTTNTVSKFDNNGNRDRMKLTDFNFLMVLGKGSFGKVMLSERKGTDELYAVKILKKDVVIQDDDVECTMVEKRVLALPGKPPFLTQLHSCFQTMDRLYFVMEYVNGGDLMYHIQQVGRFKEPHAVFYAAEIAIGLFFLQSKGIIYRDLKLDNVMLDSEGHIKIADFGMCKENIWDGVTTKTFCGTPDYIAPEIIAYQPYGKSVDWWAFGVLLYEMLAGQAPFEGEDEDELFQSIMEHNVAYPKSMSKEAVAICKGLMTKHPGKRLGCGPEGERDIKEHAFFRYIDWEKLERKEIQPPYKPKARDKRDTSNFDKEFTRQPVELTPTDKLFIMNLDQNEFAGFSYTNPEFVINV
Test: Protein Kinase Cβ1 Assay
Conditions: human recombinant PKCβ1, 10 μM 33P-ATP
Assay readout: IC50
Param answer (str): number followed by unit.

Please give the measured IC50 for this compound: CNCc1ccc2c(C3=C(c4c[nH]c5c(C)cccc45)C(=O)NC3=O)c(Cl)ccc2c1 [example 7]
2.8 nM

Please give the measured IC50 for this compound: Cc1cccc2c(C3=C(c4c(Cl)ccc5cc(CN(C)C)ccc45)C(=O)NC3=O)c[nH]c12 [example 5]
2.3 nM

====

Kindly state pIC50 for each of the entries shown.
Target: Human recombinant PKCθ (Homo sapiens, UniProt Q04759)
Sequence (Q04759 whole entry): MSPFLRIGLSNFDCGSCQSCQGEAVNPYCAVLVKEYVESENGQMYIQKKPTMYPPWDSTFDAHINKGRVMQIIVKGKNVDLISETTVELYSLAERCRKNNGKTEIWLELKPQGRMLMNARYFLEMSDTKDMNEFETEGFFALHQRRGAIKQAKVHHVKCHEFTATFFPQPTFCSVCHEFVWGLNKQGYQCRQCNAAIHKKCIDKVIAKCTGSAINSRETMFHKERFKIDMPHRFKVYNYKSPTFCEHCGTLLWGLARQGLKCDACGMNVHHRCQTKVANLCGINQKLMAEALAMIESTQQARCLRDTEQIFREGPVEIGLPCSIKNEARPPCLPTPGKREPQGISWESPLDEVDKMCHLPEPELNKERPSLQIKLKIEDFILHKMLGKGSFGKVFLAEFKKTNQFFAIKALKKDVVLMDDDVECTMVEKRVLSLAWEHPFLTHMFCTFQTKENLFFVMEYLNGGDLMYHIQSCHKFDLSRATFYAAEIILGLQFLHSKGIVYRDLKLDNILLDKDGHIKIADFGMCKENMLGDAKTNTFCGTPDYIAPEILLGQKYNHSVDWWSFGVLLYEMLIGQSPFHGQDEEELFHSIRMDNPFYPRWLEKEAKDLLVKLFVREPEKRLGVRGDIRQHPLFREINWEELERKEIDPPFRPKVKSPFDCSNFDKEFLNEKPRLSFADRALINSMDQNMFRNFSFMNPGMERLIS
Assay: Protein Kinase Cθ Assay
Type: biochemical
Conditions: 10 μM 33P-ATP
# log scale: pIC50 equals minus log10 of the concentration in mol/L

Please give the measured pIC50 for this molecule: CN(C)Cc1ccc2c(C3=C(c4cn(C)c5ccccc45)C(=O)NC3=O)c(Cl)ccc2c1
7.72

Please give the measured pIC50 for this molecule: CNCc1ccc2c(C3=C(c4c[nH]c5c(C)cccc45)C(=O)NC3=O)c(Cl)ccc2c1
8.19
